Molecular target: VEGF165 (recombinant human vascular endothelial growth factor, 165 aa form) (Homo sapiens, UniProt P15692-4 P15692-4:27-191)
Sequence (P15692 other isoform, or with tags, fused parts or gaps): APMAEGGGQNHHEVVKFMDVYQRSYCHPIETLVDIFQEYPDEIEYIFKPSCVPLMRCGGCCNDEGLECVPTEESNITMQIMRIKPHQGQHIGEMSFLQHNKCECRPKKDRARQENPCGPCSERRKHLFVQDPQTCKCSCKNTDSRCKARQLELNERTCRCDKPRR
Assay: filter; PBS, 0.01% HSA, 37 C; Kd1, X1 0.70, Kd2 38 nM
Settings: tags: gift from N. Ferrara, Genentech; chain copies: 2 (dimer, stated); label: 32P
parameterMeasured: pKd
One number for each entry, as −log10 of the molar value.

IN: Name the recorded pKd for ligand 44 (ssRNA) RNA: GGGAGCUCAGAAUAAACGCUCAAGCUUGAUGGGUGACACACGUCAUGCCGAGCUUCGACAUGAGGCCCGGAUCCGGC .
OUT: 8.77
